Test: Cell Viability - LYMP2-015 (AID 971);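 also: cells exposed to compound for 24 h; nearly all actives have a fitted effect of over 55% in size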
Settings: LYMP2-015 lymphoblastoid cell viability; series mostly up to 92.2 µM
Inconclusive results are not listed. Calls of active or inactive are those of the source. Calls follow the shape of the dose curve; as a rule, active = well fitted cell-killing curve with a large enough effect; inconclusive = small, poorly fitted or top-dose-only effect; inactive = flat fitted curve, though single readings scatter.
Outcomes: active, inactive

> print(dat)
                                     smiles  qualitativelabel
1  CN(C)c1ccc(C(=C2C=CC(=[N+](C)C)C=C2)c2ccc(N(C)C)cc2)cc1            active
2  C[C@]12C=CC(=O)C=C1CC[C@@H]1[C@@H]2C(=O)C[C@@]2(C)[C@H]1CC[C@]2(O)C(=O)CO          inactive
3           Cc1ccnc2c1NC(=O)c1cccnc1N2C1CC1          inactive
4  CC[C@H](C)C(=O)O[C@H]1C[C@@H](C)C=C2C=C[C@H](C)[C@H](CC[C@@H]3C[C@@H](O)CC(=O)O3)[C@H]21          inactive
5                        CCc1cc(C(N)=S)ccn1          inactive
